Please go through the items and note down their inhibition.
# methodNotes: blockers of RIG-like receptor reporter activation – cell-based, Sendai virus stimulus, luciferase, 10K MLSCN set, TLR/RLR signaling modifier project, primary screen (AID 602276);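 note: firefly luciferase from ISG56 promoter only with Renilla not read in this screen; 0% = Sendai virus plus DMSO and 100% = medium plus DMSO without virus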
# condition: HEK293 RL24 IRF3 luciferase reporter, at 10 µM, hits give high values
Kindly answer with a numeric value in %, unit omitted.

Exercise: What measured inhibition goes with "CCOC(=O)c1oc2cc(OCC(N)=O)ccc2c(=O)c1-c1ccc(OC)c(OC)c1" ?
Solution: 19.4

Exercise: What measured inhibition goes with "Cc1cc(=O)oc2cc(OCC(=O)OCc3nnc(-c4ccccc4)o3)ccc12" ?
Solution: 6.17

Exercise: What measured inhibition goes with "CC(C)=CC(=O)OCC(=O)NC(=O)NC(C)(C)C" ?
Solution: -2.29

Exercise: What measured inhibition goes with "Cn1c(SCC(=O)c2ccc(-c3ccccc3)cc2)nnc1-c1ccco1" ?
Solution: 3.76

Exercise: What measured inhibition goes with "Cn1c(C(=O)NCCC2=CCCCC2)cc2c(=O)n3ccccc3nc21" ?
Solution: -27.5

Exercise: What measured inhibition goes with O=C(C1CCCO1)N1CCN(C(c2ccccc2)c2ccccc2)CC1 (stereo not given) ?
Solution: 13.8

Exercise: What measured inhibition goes with "CCOC(=O)N1CCN(Cc2nc3c(c(=O)n(C)c(=O)n3C)n2Cc2ccc(F)cc2)CC1" ?
Solution: 16.7

Exercise: What measured inhibition goes with "Cc1ccc(C)c(N2CCN(C(=O)c3ccc(CS(=O)(=O)c4ccccc4C)o3)CC2)c1" ?
Solution: 11.1

Exercise: What measured inhibition goes with "NC(=O)c1sc2nc(N3CCCCC3)c3c(c2c1N)CCCC3" ?
Solution: 1.9

Exercise: What measured inhibition goes with "CCCNC(=O)c1cc(S(=O)(=O)N2CCc3ccccc32)ccc1F" ?
Solution: 8.07
